- Test system: BT-549 breast
- protocol-text: NCI tumour cell line growth inhibition, 48 h
metric-name: TGI

Observe how each entry below is paired with its result.
>>> observed("COc1cc(/C=C\\c2cc(OC)c(OC)c(OC)c2)cc(NC(=O)/C=C/c2cc(OC)c(OC)c(OC)c2)c1OC")
"> 100 µM"
>>> observed("C=C1C(=O)O[C@H]2[C@H]1CC/C(COC(=O)CSCSCC(=O)OC/C1=C/CC[C@@]3(C)O[C@H]3[C@H]3OC(=O)C(=C)[C@@H]3CC1)=C\\CC[C@@]1(C)O[C@@H]21")
"2.91 µM"
>>> observed("CN(CCO)CC[C@H](CSc1ccccc1)Nc1ccc(S(=O)(=O)NC(=O)c2ccc(N3CCC([C@@H](O)c4ccccc4-c4ccc(Cl)cc4)CC3)cc2)cc1S(=O)(=O)C(F)(F)F")
"11 µM"

Documented TGI of CCOC(=O)NC(Nc1ncccn1)(C(=O)OCC)C(F)(F)F (stereo not drawn) : > 100 µM

response.value for NC(=O)Nc1ccc(S(=O)(=O)Nc2ccc(S(N)(=O)=O)cc2)cc1 (field: TGI) = > 100 µM

TGI reading for CC1CCC2(O)C3(C)CC4(O)OC2(C1O)C1(O)C3(O)C(OC(=O)c2ccc[nH]2)C(O)(C(C)C)C41C (stereo not drawn) : > 100 µM

Recorded result, Cc1ccc2nc3c(=O)[nH]c(=O)nc-3n(C)c2c1C , TGI: > 100 µM

molecule CCOC(=O)c1cc(=O)c2ccnc3c2n1CCS3 , TGI observed: > 100 µM
